# TARGET_ENTITY: CCR9 (Homo sapiens, UniProt P51686)
# Sequence (P51686 13-369): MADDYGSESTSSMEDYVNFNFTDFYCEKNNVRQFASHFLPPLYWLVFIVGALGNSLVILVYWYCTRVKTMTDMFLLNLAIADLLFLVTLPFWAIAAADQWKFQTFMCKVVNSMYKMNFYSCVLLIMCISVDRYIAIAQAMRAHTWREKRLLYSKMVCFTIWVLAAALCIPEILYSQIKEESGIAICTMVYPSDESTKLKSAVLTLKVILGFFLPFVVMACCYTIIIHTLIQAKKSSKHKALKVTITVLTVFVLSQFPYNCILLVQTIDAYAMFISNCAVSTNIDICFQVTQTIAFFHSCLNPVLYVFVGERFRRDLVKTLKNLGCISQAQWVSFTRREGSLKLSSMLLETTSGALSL
# EXPERIMENT_NOTES: cell-based
# STATED_CONDITIONS: IC50 Gαo activation, HEK293T cells, stimulated with CCL25 31.6 nM
ATTRIBUTE_MEASURED: IC50 (nM)
Quick reminder: number only, in nM, skip the unit.

CC(C)(C)c1ccc(S(=O)(=O)Nc2ccc(Cl)cc2-c2cccnc2N)cc1 [compound 11] | 256

Now consider a different molecule.
Please report the measured IC50 for CC(C)(C)c1ccc(S(=O)(=O)Nc2ccc(Cl)cc2-c2nccnc2N)cc1 [compound 10] 14.9

====

# TARGET_ENTITY: CCR9 (Homo sapiens, UniProt P51686)
# EXPERIMENT_NOTES: biochemical
# Type: binding
# STATED_CONDITIONS: Ki NanoBRET (membranes), tracer 3a 100 nM, CCR9_Nluc membranes
ATTRIBUTE_MEASURED: pKi
Worth noting: pKi values are minus log10 of concentrations stated in mol/L.

CC(C)(C)c1ccc(S(=O)(=O)Nc2ccc(Cl)cc2-c2cccnc2N)cc1 [compound 11] | 7.89

Write down the reported pKi (system: CCR9 (Homo sapiens, UniProt P51686)) of CC(C)(C)c1ccc(S(=O)(=O)Nc2ccc(Cl)cc2-c2nccnc2N)cc1 [compound 10] 8.45
